Assay Overview: AUC (0 to infinity) in dog at 0.5 mg/kg, iv
Assay type: ADME, organism-based, Canis lupus familiaris
Experimental Parameters: in vivo
Measured Metric: AUC(0-inf) (ng·h/mL)
Answers are plain numbers, in ng·h/mL.

Sure, the documented AUC(0-inf) for CC1(C)CC(=O)c2c(C(F)(F)F)nn(Cc3ccc(C(=O)NO)cc3)c2C1 is 458

* * *

Assay Overview: C0 in dog at 0.5 mg/kg, iv
Type: ADME, organism-based, Canis lupus familiaris
Experimental Parameters: in vivo
Measured Metric: C0 (ng/mL)
One number for each entry, in ng/mL.

Sure, the documented C0 for CC1(C)CC(=O)c2c(C(F)(F)F)nn(Cc3ccc(C(=O)NO)cc3)c2C1 is 2080
